experiment: Oral bioavailability in Sprague-Dawley rat at 100 mg/kg measured upto 480 mins by LC-MS/MS analysis; type: ADME, organism-based; settings: in vivo
recorded-metric: bioavailability (%)
Dear colleague, please return just the value in %, with no unit written.

- smiles-repr: "COc1cc(OC)c(OC)cc1/C=C/COC(=O)/C=C/c1c(OC)cc(OC)c(OC)c1OC"
  bioavailability, %: 36.5

What does the record list as bioavailability for COc1cc(OC)c(OC)cc1/C=C/COC(=O)/C=C/c1cc(OC)c(OC)c(OC)c1OC ?
34.8

----------
species on record: Homo sapiens; assay: Inhibition of human LDH5 at 0.5 mM using sodium pyruvate as substrate by UV-VIS spectrophotometry method relative to control
Calls of active or inactive are those of the source. No cut-off for these calls is given here.
recorded-metric: inhibition

Some molecules with recorded inhibition:
- molecule: "COc1cc(OC)c(OC)cc1/C=C/COC(=O)/C=C/c1ccccc1Br"
  readout-value: "< 9%"
- molecule: "COc1cc(OC)c(OC)cc1CCCNC(=O)/C=C/c1cc(OC)c(OC)c(OC)c1"
  readout-value: "9%"
- molecule: "COc1cccc(/C=C/C(=O)OC/C=C/c2cc(OC)c(OC)cc2OC)c1"
  readout-value: "inactive"
- molecule: "COc1cc(OC)c(OC)cc1/C=C/COC(=O)/C=C/c1cccc(C(F)(F)F)c1"
  readout-value: "< 9%"

Next up:
What value of inhibition has been reported for the following molecule? COc1cc(OC)c(OC)cc1/C=C/COC(=O)/C=C/c1cccc(OC)c1OC
inactive
